tested on: Plasmodium falciparum; assay: GSK_TCMDC: Inhibition of Plasmodium falciparum Dd2 in whole red blood cells, using parasite LDH activity as an index of growth. Test compounds present at 2uM; type: functional
Parameter Inhibition: see the listing below.
quantity: Inhibition

>>> assay_value("Cc1cccc2nc(C(=O)Nc3nc(CN4CCC(C)CC4)cs3)cn12")
"80%"
>>> assay_value("CS(=O)(=O)O.FC(F)(F)COc1c(CNCCCCCCNCc2ccc3ccccc3c2OCC(F)(F)F)ccc2ccccc12")
"79%"
>>> assay_value("CCN(CCCN1CCCCC1)c1cc(C)nc(Nc2ccc(C)c(C)c2)n1.O=C(O)C(F)(F)F")
"60%"
>>> assay_value("Cc1cc(C(=O)CN2C(=O)NC3(CCCc4ccccc43)C2=O)c(C)n1Cc1ccc(F)cc1 (stereo not drawn)")
"53%"
>>> assay_value("O=C(NCCNc1nc(NCCNC(=O)Nc2ccccc2)c2ccc(=O)n(-c3c(F)cccc3F)c2n1)Nc1ccccc1")
"87%"
>>> assay_value("Cc1ccc(Nc2nc(NN=Cc3ccc(-c4ccc([N+](=O)[O-])cc4)o3)nc(N3CCOCC3)n2)cc1Cl")
"47%"
>>> assay_value("CCOC(=O)C1=C(C)NC2=C(C(=O)CCC2)C1c1cn(Cc2ccc(Cl)cc2Cl)nc1-c1ccccc1 (stereo not drawn)")
"96%"
>>> assay_value("Cn1c(N)cc(-c2ccc(Br)cc2)c2c(=O)nc(N)nc1-2")
"57%"
>>> assay_value("CN(CCCNc1ccc(C(=O)Nc2ccc(C(F)(F)F)cc2)cc1[N+](=O)[O-])Cc1ccccc1")
"48%"
>>> assay_value("CN1CCCc2ccc(NC(=O)c3cnc(-c4ccccc4)cn3)cc21")
"82%"
>>> assay_value("O=C(Nc1ccc(OC2CCN(Cc3ccccc3)C2)c(Cl)c1)c1ccsc1.O=C(O)C(F)(F)F (stereo not drawn)")
"75%"
>>> assay_value("O=C(NCCCCN1CCC(c2c[nH]c3ccccc23)CC1)c1ccc(-c2ccc(C(F)(F)F)cc2)cc1")
"22%"
>>> assay_value("O=C1C(=Cc2c(O)ccc3ccccc23)SC(=NCc2ccccc2)N1Cc1ccccc1")
"98%"
>>> assay_value("CCNc1cc(C(=O)N[C@@H](Cc2ccccc2)[C@H](O)CNC23CC4CC(CC(C4)C2)C3)cc(N2CCCCS2(=O)=O)c1.Cl")
"99%"
>>> assay_value("C=CCNC(=O)C(C)c1ccc2cc(OC)ccc2c1 (stereo not drawn)")
"90%"
>>> assay_value("COCCCNC(=O)c1ccc(O)c(-c2cc(Cl)cc(Cl)c2)c1")
"34%"
>>> assay_value("COc1ccc2nccc([C@@H](O)CN3CCC(NCc4cc5cccc(OCc6ccccc6)c5[nH]4)CC3)c2c1")
"40%"
>>> assay_value("COC(=O)c1ccc(C(=O)NCCCCN2CCC(c3ccc4c(c3OC)CCCC4)CC2)cc1-c1ccc(C(F)(F)F)cc1")
"19%"
>>> assay_value("CCCCCNC(=N)c1ccc(OCCCCCOc2ccc(C(=N)NCCCCC)cc2)cc1.Cl")
"98%"
>>> assay_value("O=C(O)c1ccc(-c2c[nH]c3ncc(-c4ccc(Cl)cc4)cc23)cc1")
"99%"
>>> assay_value("CS(=O)(=O)CCNCc1cccc(-c2ccc3c(Nc4ccc(Oc5ccccc5)cc4)ccnc3c2)c1")
"96%"
>>> assay_value("O=C(Cc1c[nH]cn1)Nc1ccc(-c2cccc(-c3nc4cc(C(F)(F)F)ccc4[nH]3)c2)cc1")
"95%"
>>> assay_value("COc1cccc(C(=O)NCc2cccs2)c1OCc1ccccc1")
"0%"
>>> assay_value("Cc1ccc(NC(C)C(=O)Nc2ccccc2)cc1S(=O)(=O)N1CCCCCC1 (stereo not drawn)")
"97%"
>>> assay_value("CCCCC1(NC(=O)[C@@H](Nc2ccc(C#N)c3ccccc23)C2CCCCC2)CCCCC1.O=C(O)C(F)(F)F")
"84%"
>>> assay_value("COc1ccc(Cc2c(N)nc3nc(N)nc(N)c3c2C)cc1.Cl")
"3%"
>>> assay_value("O=C(NC1CCCc2ccccc21)[C@@H]1CCCN1C(=O)c1ccc(O)c(-c2ccc(Cl)c(Cl)c2)c1 (stereo partly drawn)")
"99%"
>>> assay_value("CC(=O)O.CCc1cc2c(cc1CC)CC(NC[C@@H](O)c1ccc(O)c3[nH]c(=O)ccc13)C2")
"9%"

Where do these numbers come from? They come from ChEMBL document CHEMBL1157539.
